- system: Cannabinoid receptor 2 (Homo sapiens)
- experiment: Displacement of [3H]CP-55940 from human CB2 receptor expressed in CHO cells at 10 uM
- Type: cell-based
Each item that follows carries a reported Activity.

The examples below pair each entry with its known result.
smilesRepresentation: O=C(Nc1ccc(I)cc1)NC(c1ccccc1)c1ccccc1
Activity: < 10%

smilesRepresentation: O=C(Nc1ccc(F)cc1)NC(c1ccccc1)c1ccccc1
Activity: < 10%

smilesRepresentation: O=C(Nc1ccccc1)NC(c1ccc(Br)cc1)c1ccc(Br)cc1
Activity: 38%

smilesRepresentation: O=C1NC(c2ccccc2)(c2ccccc2)C(=O)N1c1ccc(Br)cc1
Activity: < 20%

Data request, read-out Activity, for O=C1N(c2ccccc2)C(=S)NC1(c1ccc(Br)cc1)c1ccc(Br)cc1
< 20%

Give the measured Activity of O=C(Nc1ccc(Br)cc1)NC(c1ccc(I)cc1)c1ccc(I)cc1 .
19%

// query Activity value for entry O=C(Nc1ccc(CO)cc1)NC(c1ccc(Br)cc1)c1ccc(Br)cc1
< 20%

Need Activity, item O=C(Nc1ccc(I)cc1)NC(c1ccc(Br)cc1)c1ccc(Br)cc1
34%

Dear colleague, I am looking for the recorded Activity of the following compound: COc1ccc(NC(=O)NC(c2ccccc2)c2ccccc2)cc1
< 20%

Consider the compound O=C(Nc1ccc(Br)cc1)NC(c1ccc(Cl)cc1)c1ccc(Cl)cc1 and give its measured Activity.
29%

So what's the measured Activity for this one? S=C(Nc1ccccc1)NC(c1ccc(Cl)cc1)c1ccc(Cl)cc1
23%

State the recorded Activity for this entry: O=C(Nc1ccc(Cl)cc1)NC(c1ccc(Cl)cc1)c1ccc(Cl)cc1
24%

Bench note: what Activity did S=C(Nc1ccc(Cl)cc1)NC(c1ccc(Cl)cc1)c1ccc(Cl)cc1 show?
23%

Request the reported Activity associated with O=C1NC(c2ccc(Br)cc2)(c2ccc(Br)cc2)C(=O)N1c1ccccc1
< 20%

Returns the measured Activity for the input compound. Input: O=C(Nc1ccccc1)NC(c1ccc(F)cc1)c1ccc(F)cc1
< 10%

Please give the measured Activity for this compound: O=C(Nc1ccc(Cl)cc1)NC(c1ccc(Br)cc1)c1ccc(Br)cc1
31%

# input compound: O=C1N(c2ccc(Cl)cc2)C(=S)NC1(c1ccc(Br)cc1)c1ccc(Br)cc1 ; wanted: its Activity
< 20%

What Activity value was documented for this compound, O=C(Nc1ccc(Br)cc1)NC(c1ccccc1)c1ccccc1 ?
< 20%

So what's the measured Activity for this one? O=C(Nc1ccccc1F)NC(c1ccccc1)c1ccccc1
< 10%

Fill blank: measured Activity of the compound O=C(Nc1ccccc1)NC(c1ccccc1)c1ccccc1 is ____.
< 10%

----------
- system: UniProtKB P21554
- Sequence (P21554 whole entry): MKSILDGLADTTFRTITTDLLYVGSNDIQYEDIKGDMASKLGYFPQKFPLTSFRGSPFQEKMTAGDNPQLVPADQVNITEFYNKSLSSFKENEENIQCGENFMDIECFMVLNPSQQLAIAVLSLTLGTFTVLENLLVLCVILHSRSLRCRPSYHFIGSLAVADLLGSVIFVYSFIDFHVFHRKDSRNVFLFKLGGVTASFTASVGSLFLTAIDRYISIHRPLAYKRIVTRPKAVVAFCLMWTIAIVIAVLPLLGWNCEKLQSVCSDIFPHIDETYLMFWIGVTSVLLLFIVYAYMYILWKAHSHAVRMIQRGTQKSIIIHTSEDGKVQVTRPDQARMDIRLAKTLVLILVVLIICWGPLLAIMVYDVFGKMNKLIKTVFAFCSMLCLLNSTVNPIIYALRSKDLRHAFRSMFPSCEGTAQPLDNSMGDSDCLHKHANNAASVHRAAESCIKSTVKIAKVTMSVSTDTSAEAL
- measurementSetup: filed as inverse agonist, at 10 µM
- Description: Activity at human CB1 receptor by [35S]GTP-gamma-S binding stimulation assay at 10 uM relative to basal level
Entries and their measured Emax follow.
Answer format: numeric, % implied, no suffix.

smilesRepresentation: O=C(Nc1ccc(Br)cc1)NC(c1ccc(Br)cc1)c1ccc(Br)cc1
Emax (%): -61
//
smilesRepresentation: O=C(Nc1ccc(Cl)cc1)NC(c1ccc(Cl)cc1)c1ccc(Cl)cc1
Emax (%): -74
//
smilesRepresentation: S=C(Nc1ccc(Cl)cc1)NC(c1ccc(Br)cc1)c1ccc(Br)cc1
Emax (%): -61
//
smilesRepresentation: O=C(Nc1ccc(Cl)cc1)NC(c1ccc(Br)cc1)c1ccc(Br)cc1
Emax (%): -72

Record lookup: for UniProtKB P21554, what Emax belongs to O=C(Nc1ccc(Br)cc1)NC(c1ccc(Cl)cc1)c1ccc(Cl)cc1 ?
-66
